System: Renilla luciferase RNA
PROTOCOL: Barcoded aptazyme variant library screen: un-cleaved Renilla luciferase RNA by barcode read counts, HEK293-T cells
Assay type: cell-based
SETUP CONDITIONS: un-cleaved Renilla luciferase RNA by barcode read counts; with 1 mM theophylline (ON) over without theophylline (OFF); HEK293-T cells; triplicate
Assign Fold change in RNA expression between the ON state and the OFF state to each entry below.
Would you mind answering with just the numeric figure?

Query: Item RA353 (nucleic acid, expressed or natural sequence) DNA: GCGCGTCCTGGATTCGCGGAAACGCGTACATCCAGCTGACGAGTCCCAAATAGGACGAAACGCCGGAATACCAGCATCGTCTTGATGCCCTTGGAAGTCCGGCGC has what recorded Fold change in RNA expression between the ON state and the OFF state?
Response: 0.9

Query: Item RA325 (nucleic acid, expressed or natural sequence) DNA: GCGCGTCCTGGATTCGCGGAAACGCGTACATCCAGCTGACGAGTCCCAAATAGGAGGAATACCAGCATCGTCTTGATGCCCTTGGAAGTCCCAAAACGCGC has what recorded Fold change in RNA expression between the ON state and the OFF state?
Response: 0.9

Query: Item RA320 (nucleic acid, expressed or natural sequence) DNA: GCGCGTCCTGGATTCGCGGAAACGCGTACATCCAGCTGACGAGTAGTGATACCAGCATCGTCTTGATGCCCTTGGCAGCACTCCCAAATAGGACGAAACGCGC has what recorded Fold change in RNA expression between the ON state and the OFF state?
Response: 0.9

Query: Item RA388 (nucleic acid, expressed or natural sequence) DNA: GCGCGTCCTGAGTGATACCAGCATCGTCTTGATGCCCTTGGCAGCACTGATTCGCGGAAACGCGTACATCCAGCTGACGAGTCCCAAATAGGACGAAACGCGC has what recorded Fold change in RNA expression between the ON state and the OFF state?
Response: 0.8

Query: Item RA435 (nucleic acid, expressed or natural sequence) DNA: GCGCGTCCTGGATTCGCGGAAACGCGTACATCCAGCTGACGAGTCCCAAACGGAATACCAGCATCGTCTTGATGCCCTTGGAAGTCCGTAGGACGAAACGCGC has what recorded Fold change in RNA expression between the ON state and the OFF state?
Response: 0.6

Query: Item RA392 (nucleic acid, expressed or natural sequence) DNA: GCGCGTCCTGGATTCGCGGACGGAATACCAGCATCGTCTTGATGCCCTTGGAAGTCCGAACGCGTACATCCAGCTGACGAGTCCCAAATAGGACGAAACGCGC has what recorded Fold change in RNA expression between the ON state and the OFF state?
Response: 0.7

Query: Item RA438 (nucleic acid, expressed or natural sequence) DNA: GCGCGTCCTGGATTCGCGGAAACGCGTACATCCAGCTGACGAGTCCCAAATAGGACGCGGAATACCAGCATCGTCTTGATGCCCTTGGAAGTCCGAAACGCGC has what recorded Fold change in RNA expression between the ON state and the OFF state?
Response: 0.6

Query: Item RA423 (nucleic acid, expressed or natural sequence) DNA: GCGCGTCCTGGATTCGCGGAAACGCGTACATCCAGCTGACGAGCCGGAATACCAGCATCGTCTTGATGCCCTTGGAAGTCCGGTCCCAAATAGGACGAAACGCGC has what recorded Fold change in RNA expression between the ON state and the OFF state?
Response: 0.6

Query: Item RA313 (nucleic acid, expressed or natural sequence) DNA: GCGCGTCCTGGATTCGCGGAAACGCGTACATCCAGCTGACGAGTCCCAACGGAATACCAGCATCGTCTTGATGCCCTTGGAAGTCCGATAGGACGAAACGCGC has what recorded Fold change in RNA expression between the ON state and the OFF state?
Response: 1.0

Query: Item RA382 (nucleic acid, expressed or natural sequence) DNA: GCGCGTCCTGGATTCGCGGAAACGCGTACATCCAGCTGACGCCGGAATACCAGCATCGTCTTGATGCCCTTGGAAGTCCGGAGTCCCAAATAGGACGAAACGCGC has what recorded Fold change in RNA expression between the ON state and the OFF state?
Response: 0.8

Query: Item RA331 (nucleic acid, expressed or natural sequence) DNA: GCGCGTCCTGGGAATACCAGCATCGTCTTGATGCCCTTGGAAGTCCGATTCGCGGAAACGCGTACATCCAGCTGACGAGTCCCAAATAGGACGAAACGCGC has what recorded Fold change in RNA expression between the ON state and the OFF state?
Response: 0.9

Query: Item RA466 (nucleic acid, expressed or natural sequence) DNA: GCGCGTCCTGGATTCGCGGAACGGAATACCAGCATCGTCTTGATGCCCTTGGAAGTCCGACGCGTACATCCAGCTGACGAGTCCCAAATAGGACGAAACGCGC has what recorded Fold change in RNA expression between the ON state and the OFF state?
Response: 0.4

Query: Item RA323 (nucleic acid, expressed or natural sequence) DNA: GCGCGTCCTGGATTCGCGCGGAATACCAGCATCGTCTTGATGCCCTTGGAAGTCCGGAAACGCGTACATCCAGCTGACGAGTCCCAAATAGGACGAAACGCGC has what recorded Fold change in RNA expression between the ON state and the OFF state?
Response: 0.9

Query: Item RA315 (nucleic acid, expressed or natural sequence) DNA: GCGCGTCCTGGATTCGCGGAAACGCGTACATCCAGCTGACGAGTCCCAAATAGGACGAACGAGAATACCAGCATCGTCTTGATGCCCTTGGAAGTCTCGACGCGC has what recorded Fold change in RNA expression between the ON state and the OFF state?
Response: 1.0
